tested_target: MC receptor endogenous to Xenopus laevis melanophores (Xenopus laevis)
experiment_notes: cell-based or functional assay
Square brackets hold non-standard residues; d marks the D form. * marks the point of attachment. Benzoyl(3-OMe) = COc1cccc(C(=O)*)c1; Benzoyl(4-OMe) = COc1ccc(C(=O)*)cc1
I'd be grateful if you could share measured MCR IC50 nM: antagonism of α-MSH (600 pM) darkening of frog melanophores for these entries.
One number for each entry, in nM.

Field: example entries. Status: answers known.
{Benzoyl(4-OMe)}-RRI[dR]P[dK][dL]-NH2 (SMILES CC[C@H](C)[C@H](NC(=O)[C@H](CCCNC(=N)N)NC(=O)[C@H](CCCNC(=N)N)NC(=O)c1ccc(OC)cc1)C(=O)N[C@H](CCCNC(=N)N)C(=O)N1CCC[C@H]1C(=O)N[C@H](CCCCN)C(=O)N[C@H](CC(C)C)C(N)=O) [SQW-2] = 114
{Benzoyl(4-OMe)}-[dR][dR]I[dR]P[dK][dL]-NH2 (SMILES CC[C@H](C)[C@H](NC(=O)[C@@H](CCCNC(=N)N)NC(=O)[C@@H](CCCNC(=N)N)NC(=O)c1ccc(OC)cc1)C(=O)N[C@H](CCCNC(=N)N)C(=O)N1CCC[C@H]1C(=O)N[C@H](CCCCN)C(=O)N[C@H](CC(C)C)C(N)=O) [SQW-4] = 17
{Benzoyl(3-OMe)}-ARIRPKL-NH2 (SMILES CC[C@H](C)[C@H](NC(=O)[C@H](CCCNC(=N)N)NC(=O)[C@H](C)NC(=O)c1cccc(OC)c1)C(=O)N[C@@H](CCCNC(=N)N)C(=O)N1CCC[C@H]1C(=O)N[C@@H](CCCCN)C(=O)N[C@@H](CC(C)C)C(N)=O) [SQW-7] = 110
{Benzoyl(3-OMe)}-RRIRPAL-NH2 (SMILES CC[C@H](C)[C@H](NC(=O)[C@H](CCCNC(=N)N)NC(=O)[C@H](CCCNC(=N)N)NC(=O)c1cccc(OC)c1)C(=O)N[C@@H](CCCNC(=N)N)C(=O)N1CCC[C@H]1C(=O)N[C@@H](C)C(=O)N[C@@H](CC(C)C)C(N)=O) [SQW-12] = 1600
{Benzoyl(4-OMe)}-RRIRPK[dL]-NH2 [p-anisoyl-[D-Leu^12] dynorphin A(6-12)-NH2] = 29

Would you mind listing MCR IC50 nM: antagonism of α-MSH (600 pM) darkening of frog melanophores for each of the following binders?
1. {Benzoyl(3-OMe)}-RRIAPKL-NH2 (SMILES CC[C@H](C)[C@H](NC(=O)[C@H](CCCNC(=N)N)NC(=O)[C@H](CCCNC(=N)N)NC(=O)c1cccc(OC)c1)C(=O)N[C@@H](C)C(=O)N1CCC[C@H]1C(=O)N[C@@H](CCCCN)C(=O)N[C@@H](CC(C)C)C(N)=O) [SQW-10]
2. {Benzoyl(3-OMe)}-RRIRAKL-NH2 (SMILES CC[C@H](C)[C@H](NC(=O)[C@H](CCCNC(=N)N)NC(=O)[C@H](CCCNC(=N)N)NC(=O)c1cccc(OC)c1)C(=O)N[C@@H](CCCNC(=N)N)C(=O)N[C@@H](C)C(=O)N[C@@H](CCCCN)C(=O)N[C@@H](CC(C)C)C(N)=O) [SQW-11]
3. {Benzoyl(4-OMe)}-R[dR]I[dR]P[dK][dL]-NH2 (SMILES CC[C@H](C)[C@H](NC(=O)[C@@H](CCCNC(=N)N)NC(=O)[C@H](CCCNC(=N)N)NC(=O)c1ccc(OC)cc1)C(=O)N[C@H](CCCNC(=N)N)C(=O)N1CCC[C@H]1C(=O)N[C@H](CCCCN)C(=O)N[C@H](CC(C)C)C(N)=O) [SQW-3]

1. 187
2. 188
3. 156
